The measurements presented in this section are drawn from the supplement of paper PMC10567573.

assay-summary: protein stability index of a GFP-peptide fusion (GPS, HEK-293T) (PSI 1-6); higher = more stable;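 also: 24-mer peptide tiles fused after GFP, lentivirally expressed, FACS-sorted into six equal bins by GFP/DsRed ratio, decoded by Illumina sequencing, PSI is the read-weighted mean bin number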
conditions-used: treatment: MLN4924 1 uM, 8 h; c terminus: a fixed tail appended
Response key: label 1 means protein stability index >= 3; label 0 means protein stability index < 3.

[[record]]
seq_text = "ALQSRAAQRHRGSAKDGGPQPPDA [PLEKHN1]"
classification = "label 1"

[[record]]
seq_text = "ACIAYIRLTQYMDGSGMPKTMQSE [CAMK2D]"
classification = "label 0"

[[record]]
seq_text = "TQIGFADLMGVLTKGVREVERALQ [FEM1A]"
classification = "label 0"

[[record]]
seq_text = "SLLSKARGIDSSSVKLRGSSLFMD [WEE1]"
classification = "label 0"


# input for lookup
Answer whether protein stability index of EDAYKIRIRIDDEPANLDILDTAG [RIT1] is greater than or equal to 3.
label 1
